testedTarget: HeLa cell extract proteins (Homo sapiens)
Construct: endogenous in cells; host or cells: HeLa cell extract
Format: binding
settings: HeLa; protein ALDH3A2
readoutLabel: fold changes relative to vehicle control
Give only the figure.

Nc1nc2cccc(-c3ccccc3)c2n1Cc1ccc(Cl)c(Cl)c1 [compound 3]
1.05
CCCCCCOc1ccc(Cc2cnc(N)nc2N)cc1 [compound 1]
0.94
Nc1nc2c(c(=O)[nH]1)N(C=O)C(CNc1ccc(C(=O)N[C@@H](CCC(=O)O)C(=O)O)cc1)CN2 (stereo partly drawn) [LEU, leucovorin]
0.89
NCCOCCOCC(=O)Nc1nc2ncc(CNc3ccc(C(=O)NC(CCC(=O)O)C(=O)O)cc3)nc2c(=O)[nH]1 (stereo not drawn) [compound 6]
0.92
NCCCNc1ccc(C(=O)NC(CCC(=O)O)C(=O)O)cc1 (stereo not drawn) [compound 7]
0.89

# input Suppose we examine the compound CCCCCCOc1cccc(Cc2cnc(N)nc2N)c1 [compound 2] ; what fold changes relative to vehicle control value has been reported?
# output 1.07

====

Recorded fold changes relative to vehicle control, one value per entry.
testedTarget: HeLa cell extract proteins (Homo sapiens, UniProt P07686)
Construct: endogenous in cells; host or cells: HeLa cell extract
Sequence (P07686 122-556): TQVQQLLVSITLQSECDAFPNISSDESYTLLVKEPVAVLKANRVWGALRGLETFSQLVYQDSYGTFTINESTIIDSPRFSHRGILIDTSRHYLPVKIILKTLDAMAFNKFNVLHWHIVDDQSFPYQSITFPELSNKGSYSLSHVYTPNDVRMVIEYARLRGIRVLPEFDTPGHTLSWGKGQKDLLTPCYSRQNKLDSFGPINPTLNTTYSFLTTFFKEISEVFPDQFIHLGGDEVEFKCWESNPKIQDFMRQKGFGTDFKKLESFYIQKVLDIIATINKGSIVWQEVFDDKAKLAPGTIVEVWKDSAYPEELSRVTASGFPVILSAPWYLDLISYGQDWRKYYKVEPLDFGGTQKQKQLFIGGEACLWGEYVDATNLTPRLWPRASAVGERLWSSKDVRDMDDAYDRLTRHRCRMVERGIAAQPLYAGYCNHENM
Assay type: binding
settings: HeLa; protein HEXB
Reply with just the number.

Example cases with answers are listed next.
Nc1nc2cccc(-c3ccccc3)c2n1Cc1ccc(Cl)c(Cl)c1
0.93
CCCCCCOc1ccc(Cc2cnc(N)nc2N)cc1
1.04
CCCCCCOc1cccc(Cc2cnc(N)nc2N)c1
1.06
NCCCNc1ccc(C(=O)NC(CCC(=O)O)C(=O)O)cc1 (stereo not drawn)
1.06
NCCOCCOCC(=O)Nc1nc2ncc(CNc3ccc(C(=O)NC(CCC(=O)O)C(=O)O)cc3)nc2c(=O)[nH]1 (stereo not drawn)
1.05

API: the following record is the query input.
# input Report fold changes relative to vehicle control for Nc1nc2c(c(=O)[nH]1)N(C=O)C(CNc1ccc(C(=O)N[C@@H](CCC(=O)O)C(=O)O)cc1)CN2 (stereo partly drawn) please.
# output 0.97

====

testedTarget: HeLa cell extract proteins (Homo sapiens, UniProt P46977)
Construct: endogenous in cells; host or cells: HeLa cell extract
Sequence (P46977 whole entry): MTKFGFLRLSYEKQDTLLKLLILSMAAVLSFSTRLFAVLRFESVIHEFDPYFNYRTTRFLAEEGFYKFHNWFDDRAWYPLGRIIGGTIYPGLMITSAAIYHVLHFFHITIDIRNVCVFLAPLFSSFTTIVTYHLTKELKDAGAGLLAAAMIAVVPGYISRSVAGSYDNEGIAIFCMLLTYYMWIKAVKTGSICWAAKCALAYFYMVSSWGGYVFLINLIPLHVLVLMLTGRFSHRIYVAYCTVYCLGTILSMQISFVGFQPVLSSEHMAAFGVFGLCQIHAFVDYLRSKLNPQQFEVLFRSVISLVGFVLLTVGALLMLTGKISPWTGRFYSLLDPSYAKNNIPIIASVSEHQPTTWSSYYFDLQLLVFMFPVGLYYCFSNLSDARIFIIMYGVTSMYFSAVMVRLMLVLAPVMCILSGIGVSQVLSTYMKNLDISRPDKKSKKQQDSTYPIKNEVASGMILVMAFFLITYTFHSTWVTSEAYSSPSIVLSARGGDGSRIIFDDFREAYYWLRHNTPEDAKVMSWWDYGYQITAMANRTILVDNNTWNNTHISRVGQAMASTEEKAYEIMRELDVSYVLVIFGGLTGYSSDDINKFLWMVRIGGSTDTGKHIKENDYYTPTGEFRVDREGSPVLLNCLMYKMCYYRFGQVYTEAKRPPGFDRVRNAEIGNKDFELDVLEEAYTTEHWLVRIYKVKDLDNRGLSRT
Assay type: binding
settings: HeLa; protein STT3A
// reported fold changes relative to vehicle control for each item listed
Enter a number only.

// below: answered molecules
NCCOCCOCC(=O)Nc1nc2ncc(CNc3ccc(C(=O)NC(CCC(=O)O)C(=O)O)cc3)nc2c(=O)[nH]1 (stereo not drawn) [compound 6]
0.96
Nc1nc2c(c(=O)[nH]1)N(C=O)C(CNc1ccc(C(=O)N[C@@H](CCC(=O)O)C(=O)O)cc1)CN2 (stereo partly drawn) [LEU, leucovorin]
1.1
Nc1nc2cccc(-c3ccccc3)c2n1Cc1ccc(Cl)c(Cl)c1 [compound 3]
1.36

# input # fold changes relative to vehicle control lookup, item CCCCCCOc1ccc(Cc2cnc(N)nc2N)cc1 [compound 1]
# output 0.96

# input What measured fold changes relative to vehicle control goes with CCCCCCOc1cccc(Cc2cnc(N)nc2N)c1 [compound 2] ?
# output 1.08

# input Name the recorded fold changes relative to vehicle control for NCCCNc1ccc(C(=O)NC(CCC(=O)O)C(=O)O)cc1 (stereo not drawn) [compound 7] .
# output 0.93

====

testedTarget: HeLa cell extract proteins (Homo sapiens)
Construct: endogenous in cells; host or cells: HeLa cell extract
Assay type: binding
settings: protein EIF3C; HeLa
readoutLabel: fold changes relative to vehicle control
No unit in the answer, only the number.

Below are worked cases with known answers.
CCCCCCOc1cccc(Cc2cnc(N)nc2N)c1 [compound 2]
1.19
Nc1nc2c(c(=O)[nH]1)N(C=O)C(CNc1ccc(C(=O)N[C@@H](CCC(=O)O)C(=O)O)cc1)CN2 (stereo partly drawn) [LEU, leucovorin]
1.02
NCCOCCOCC(=O)Nc1nc2ncc(CNc3ccc(C(=O)NC(CCC(=O)O)C(=O)O)cc3)nc2c(=O)[nH]1 (stereo not drawn) [compound 6]
1.02
Nc1nc2cccc(-c3ccccc3)c2n1Cc1ccc(Cl)c(Cl)c1 [compound 3]
1.08
CCCCCCOc1ccc(Cc2cnc(N)nc2N)cc1 [compound 1]
1.1

# evaluate next
# input What does the record list as fold changes relative to vehicle control for NCCCNc1ccc(C(=O)NC(CCC(=O)O)C(=O)O)cc1 (stereo not drawn) [compound 7] ?
# output 0.88
